// values below are reported pKd
# tested-on: T1, EsCas13d, nuclease-dead (Eubacterium siraeum, UniProt B0MS50, R295A;H300A;R849A;H854A)
# T1 sequence: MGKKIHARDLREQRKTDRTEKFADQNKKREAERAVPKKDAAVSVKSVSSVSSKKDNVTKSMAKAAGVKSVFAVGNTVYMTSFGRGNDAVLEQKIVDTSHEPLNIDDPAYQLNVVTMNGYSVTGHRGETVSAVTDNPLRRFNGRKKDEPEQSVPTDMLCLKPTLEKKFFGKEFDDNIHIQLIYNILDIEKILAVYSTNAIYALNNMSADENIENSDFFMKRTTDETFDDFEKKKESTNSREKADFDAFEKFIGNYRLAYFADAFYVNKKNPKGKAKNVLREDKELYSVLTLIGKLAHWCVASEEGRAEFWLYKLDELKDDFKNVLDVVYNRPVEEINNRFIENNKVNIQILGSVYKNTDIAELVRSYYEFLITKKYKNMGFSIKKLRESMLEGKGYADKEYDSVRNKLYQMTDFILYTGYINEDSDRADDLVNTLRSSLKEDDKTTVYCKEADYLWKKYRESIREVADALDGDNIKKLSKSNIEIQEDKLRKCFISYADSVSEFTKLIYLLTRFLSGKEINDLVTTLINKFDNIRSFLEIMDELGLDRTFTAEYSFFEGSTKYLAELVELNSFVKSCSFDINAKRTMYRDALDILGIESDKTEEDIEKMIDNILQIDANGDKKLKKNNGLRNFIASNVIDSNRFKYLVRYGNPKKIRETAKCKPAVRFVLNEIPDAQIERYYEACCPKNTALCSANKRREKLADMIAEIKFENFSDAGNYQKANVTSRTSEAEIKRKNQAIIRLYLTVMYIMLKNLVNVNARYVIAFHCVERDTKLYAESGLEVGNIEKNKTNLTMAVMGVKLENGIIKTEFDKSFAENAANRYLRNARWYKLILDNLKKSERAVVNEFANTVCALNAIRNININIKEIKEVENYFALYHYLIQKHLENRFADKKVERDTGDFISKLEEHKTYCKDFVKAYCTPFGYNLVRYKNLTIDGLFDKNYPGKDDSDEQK
# assay-notes: crRNA (strand 1, pre-loaded); Mg2+; 40 mM Tris-HCl pH 7.5, 150 mM NaCl, 6 mM MgCl2, 1 mM DTT, 0.1% Tween-20, 0.2 mg/ml BSA; 25 C; 10 min per concentration, then washed
# protocol-conditions: tags: His6-TwinStrep-SUMO cleaved; N-terminal SNAP kept (SNAP-Surface 488); label: 3' end held by stalled T7 RNA polymerase
The value called pKd is obtained by taking minus log10 of the concentration in mol/L.

Sample records with pKd:
{"columns": ["binder", "obs-value"],
 "data": [
  ["target 1 G5A,A9G (mixed) RNA 1: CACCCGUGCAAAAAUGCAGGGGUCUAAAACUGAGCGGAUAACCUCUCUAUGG RNA 2: GGGAAUGGAUCCACAUCUACGAAUUCGUACCAUAGAGAGGUUGUCCACUCACCGAGAUCGGAAGAGCACACGU", 7.71],
  ["target 1 insC 3' of 3,insU 3' of 1 (mixed) RNA 1: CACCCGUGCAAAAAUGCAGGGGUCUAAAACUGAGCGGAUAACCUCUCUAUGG RNA 2: GGGAAUGGAUCCACAUCUACGAAUUCGUACCAUAGAGAGGUUAUCCGCUCCAUCCGAGAUCGGAAGAGCACACGU", 7.97],
  ["target 1 insA 3' of 7,insU 3' of 4 (mixed) RNA 1: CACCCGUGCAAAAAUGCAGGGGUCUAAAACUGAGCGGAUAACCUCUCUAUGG RNA 2: GGGAAUGGAUCCACAUCUACGAAUUCGUACCAUAGAGAGGUUAUCACGCUUCACCGAGAUCGGAAGAGCACACGU", 8.20],
  ["target 2 MT 5'PFS CAC 3'PFS ACG (mixed) RNA 1: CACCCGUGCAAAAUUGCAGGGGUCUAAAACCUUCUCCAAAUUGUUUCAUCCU RNA 2: GGGAAUGGAUCCACAUCUACGAAUUCCACAGGAUGAAACAAUUUGGAGAAGACGAGAUCGGAAGAGCACACGU", 8.55]
]}

Endpoint output: pKd of target 2 MT 5'PFS GCA 3'PFS AGU (mixed) RNA 1: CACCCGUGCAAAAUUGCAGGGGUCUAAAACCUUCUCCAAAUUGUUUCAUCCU RNA 2: GGGAAUGGAUCCACAUCUACGAAUUCGCAAGGAUGAAACAAUUUGGAGAAGAGUAGAUCGGAAGAGCACACGU . Value?
7.55

Endpoint output: pKd of target 1 insC 3' of 12,insG 3' of 9 (mixed) RNA 1: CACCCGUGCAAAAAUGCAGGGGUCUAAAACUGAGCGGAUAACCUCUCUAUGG RNA 2: GGGAAUGGAUCCACAUCUACGAAUUCGUACCAUAGAGAGGCUUAGUCCGCUCACCGAGAUCGGAAGAGCACACGU . Value?
7.62

Endpoint output: pKd of target 1 A9G,G13U (mixed) RNA 1: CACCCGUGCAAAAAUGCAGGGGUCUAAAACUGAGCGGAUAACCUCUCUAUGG RNA 2: GGGAAUGGAUCCACAUCUACGAAUUCGUACCAUAGAGAUGUUGUCCGCUCACCGAGAUCGGAAGAGCACACGU . Value?
7.28

Endpoint output: pKd of target 2 MT 5'PFS ACU 3'PFS CAU (mixed) RNA 1: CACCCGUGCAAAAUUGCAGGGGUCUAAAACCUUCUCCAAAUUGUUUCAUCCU RNA 2: GGGAAUGGAUCCACAUCUACGAAUUCACUAGGAUGAAACAAUUUGGAGAAGCAUAGAUCGGAAGAGCACACGU . Value?
8.51
